Read-out record for ERAP2 (Homo sapiens, UniProt Q6P179): IC50

- smiles_input: "O=C(NO)[C@H](Cc1ccc(O)cc1)n1cc(CNS(=O)(=O)c2ccc(-c3ccccc3)s2)nn1"
  target_of_assay: "ERAP2 (Homo sapiens, UniProt Q6P179)"
  IC50 (µM): 0.76
- smiles_input: "O=C(C[C@@H](Cc1c[nH]c2ccccc12)n1cc(CNS(=O)(=O)c2ccc(-c3ccccc3)s2)nn1)NO"
  target_of_assay: "ERAP2 (Homo sapiens, UniProt Q6P179)"
  IC50 (µM): 12
- smiles_input: "O=C(C[C@@H](Cc1ccc2ccccc2c1)n1cc(CNS(=O)(=O)c2ccc(-c3ccccc3)s2)nn1)NO"
  target_of_assay: "ERAP2 (Homo sapiens, UniProt Q6P179)"
  IC50 (µM): 2.29
